These entries and their values trace back to paper PMC8002983.

pIC50: recorded values
# Experimental system: purified liver bovine arginase (b-ARGI) (Bos taurus)
# Construct: purified liver bovine arginase 1, which was purchased from MP Biomedicals; purchased MP Biomedicals (Illkirch-Graffenstaden, France); host or cells: bovine liver (tissue-purified)
# Sequence (Q2KJ64 1-322): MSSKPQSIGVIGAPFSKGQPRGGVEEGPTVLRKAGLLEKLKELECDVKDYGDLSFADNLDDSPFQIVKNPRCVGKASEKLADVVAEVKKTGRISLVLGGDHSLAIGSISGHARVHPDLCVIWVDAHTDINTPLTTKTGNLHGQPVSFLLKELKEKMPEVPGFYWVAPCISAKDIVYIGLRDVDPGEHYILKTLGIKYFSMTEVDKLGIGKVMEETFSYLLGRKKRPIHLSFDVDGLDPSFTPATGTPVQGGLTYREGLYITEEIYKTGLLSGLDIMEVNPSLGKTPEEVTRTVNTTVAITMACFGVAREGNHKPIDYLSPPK
# Method: in vitro arginase inhibitory assay (colorimetric urea detection)
# Format: biochemical
# Stated conditions: means ± SEM, three distinct experiments in triplicate, read-out: Arginase Inhibition, IC50
Expect pIC50 as a plain number equal to -log10 of the molar concentration.

> print(dat)
                                   compound                       experimental.system  endpoint.result
1  Oc1ccc(/C=C/c2cc(O)cc(O)c2)cc1 [Compound 3, trans-resveratrol]  purified liver bovine arginase (b-ARGI) (Bos taurus)             3.98
2  COc1cc2c3c(c1)O[C@H](C)CC3(C)c1cc3oc(OC)ccc-3c1O2 (stereo partly shown)  purified liver bovine arginase (b-ARGI) (Bos taurus)             4.13
3   O=c1cc(-c2ccc(O)c(O)c2)oc2cc(O)cc(O)c12  purified liver bovine arginase (b-ARGI) (Bos taurus)             4.22

Now for a further compound.
Data request: Provide only the value of recorded pIC50 for O=C1/C(=C/c2ccc(O)c(O)c2)Oc2cc(O)cc(O)c21
Data returned: 4.24
